Below, each entry is listed alongside its reported log10(IC50).
Test system: AMO-1 human multiple myeloma tumor cell line
Experiment: AMO-1 cell viability assay (CellTiter-Glo, 24 hours)
Format: cell-based
Settings: Homo sapiens, AMO1, 24 h, read-out: AMO-1 Viability IC50 (μM, 10% FBS), 10% FBS, 24 hours of compound treatment
Reminder: these figures are log10 of reported IC50, in µM before transformation.

[
  {
    "molecule": "COCCOCCOCCOCC1(F)CC=C(c2nccc(COc3ccc4cc3C[C@H](C(=O)O)Oc3ncnc5sc(-c6ccc(F)cc6)c(c35)-c3c(C)c(Cl)c(c(Cl)c3C)O[C@H](CN3CCN(C)CC3)CO4)n2)CC1 (single isomer, unassigned)",
    "log10(IC50)": -3.71
  },
  {
    "molecule": "COCCOCCOCCOCC1CN(c2nccc(COc3ccc4cc3C[C@H](C(=O)O)Oc3ncnc5sc(-c6ccc(F)cc6)c(c35)-c3c(C)c(Cl)c(c(Cl)c3C)O[C@H](CN3CCN(C)CC3)CO4)n2)C1",
    "log10(IC50)": -2.69
  },
  {
    "molecule": "COCCOCCOCCOC[C@@H]1CN(c2nccc(COc3ccc4cc3C[C@H](C(=O)O)Oc3ncnc5sc(-c6ccc(F)cc6)c(c35)-c3c(C)c(Cl)c(c(Cl)c3C)O[C@H](CN3CCN(C)CC3)CO4)n2)CCO1",
    "log10(IC50)": -3.37
  },
  {
    "molecule": "CO[C@H]1O[C@H](COc2ccc(-c3nccc(COc4ccc5cc4C[C@H](C(=O)O)Oc4ncnc6sc(-c7ccc(F)cc7)c(c46)-c4ccc(c(Cl)c4C)CN(CCN4CCN(C)CC4)C5)n3)cc2)[C@@H](OC)[C@H](OC)[C@@H]1OC",
    "log10(IC50)": -0.44
  }
]

// next item, log10(IC50) requested
Prompt: Consider the molecule CO[C@@H]1CO[C@H]2[C@@H]1OC[C@H]2Oc1nccc(COc2ccc3cc2C[C@H](C(=O)O)Oc2ncnc4sc(-c5ccc(F)cc5)c(c24)-c2c(C)c(Cl)c(c(Cl)c2C)O[C@H](CN2CCN(C)CC2)CO3)n1 tested on AMO-1 human multiple myeloma tumor cell line; state its log10(IC50).
Response: -2.65

====

Below, each entry is listed alongside its reported Ki.
Target: GST-MCL-1 (Homo sapiens)
Assay: TR-FRET MCL-1 binding assay (competition with probe F-Bak)
Settings: MCL-1 Binding Ki (nM, 10% HS), in the presence of 10% HS (human serum)
Procedure: Tb-anti-GST antibody was purchased from Invitrogen (Catalog No. PV4216). […] The samples were then mixed on a shaker for 1 minute and incubated for an additional 2 hours at room temperature. […] Fluorescence was measured on the Envision (Perkin Elmer) using a 340/35 nm excitation filter and 520/525 (F-Bak) and 495/510 nm (Tb-labeled anti-his antibody) emission filters. […]
Kindly provide the numeric value in nM only, without the unit symbol.

Example entries begin here.
[
  {
    "compound": "Cc1c(Cl)c2c(Cl)c(C)c1-c1c(-c3ccc(F)cc3)sc3ncnc(c13)O[C@@H](C(=O)O)Cc1cc(ccc1OCc1ccnc([C@@H]3CN4CCC[C@H]4CO3)n1)OC[C@@H](CN1CCN(C)CC1)O2 [Example 150]",
    "system-under-test": "GST-MCL-1 (Homo sapiens)",
    "quantitative-readout": 0.267
  },
  {
    "compound": "Cc1c2ccc(c1Cl)O[C@H](CN1CCN(C)CC1)COc1ccc(OCc3ccnc(-c4ccc(OC[C@H](O)CO)cc4)n3)c(c1)C[C@H](C(=O)O)Oc1ncnc3sc(-c4ccc(F)cc4)c-2c13 (atropisomer, axis not shown) [Example 18]",
    "system-under-test": "GST-MCL-1 (Homo sapiens)",
    "quantitative-readout": 0.269
  },
  {
    "compound": "Cc1c(Cl)c2c(Cl)c(C)c1-c1c(-c3ccc(F)cc3)sc3ncnc(c13)O[C@@H](C(=O)O)Cc1cc(ccc1OCc1ccnc(-c3ccc(CN4CCOCC4)cc3)n1)OC[C@@H](CN1CCN(C)CC1)O2 [Example 148]",
    "system-under-test": "GST-MCL-1 (Homo sapiens)",
    "quantitative-readout": 0.346
  },
  {
    "compound": "COCCOCCOCCO[C@H]1CC[C@H](c2nccc(COc3ccc4cc3C[C@H](C(=O)O)Oc3ncnc5sc(C6CCC6)c(c35)-c3c(C)c(Cl)c(c(Cl)c3C)O[C@H](CN3CCN(C)CC3)CO4)n2)CC1 [Example 131]",
    "system-under-test": "GST-MCL-1 (Homo sapiens)",
    "quantitative-readout": 1.14
  }
]

Prompt: Fill in Ki for record COCCOCCN(CCOCCOC)c1nccc(COc2ccc3cc2C[C@H](C(=O)O)Oc2ncnc4sc(-c5ccc(F)cc5)c(c24)-c2c(C)c(Cl)c(c(Cl)c2C)O[C@H](CN2CCN(C)CC2)CO3)n1 [Example 108]
Response: 6.62

Prompt: Fill in Ki for record CO[C@H]1O[C@H](COc2ccc(-c3nccc(COc4ccc5cc4C[C@H](C(=O)O)Oc4ncnc6sc(-c7ccc(F)cc7)c(c46)-c4ccc(c(Cl)c4C)CN(CCN4CCN(C)CC4)C5)n3)cc2)[C@@H](O)[C@H](O)[C@H]1O [Example 9]
Response: 0.296

Prompt: Fill in Ki for record Cc1c2ccc(c1Cl)O[C@H](CN1CCN(C)CC1)COc1ccc(OCc3ccnc(-c4ccc(CCC(=O)O)cc4)n3)c(c1)C[C@H](C(=O)O)Oc1ncnc3sc(-c4ccc(F)cc4)c-2c13 (atropisomer, axis not shown) [Example 17]
Response: 0.246

Prompt: Fill in Ki for record CO[C@@H]1CO[C@H]2[C@@H]1OC[C@H]2OCCOCCOc1ccc(-c2nccc(COc3ccc4cc3C[C@H](C(=O)O)Oc3ncnc5sc(-c6ccc(F)cc6)c(c35)-c3c(C)c(Cl)c(c(Cl)c3C)O[C@H](CN3CCN(C)CC3)CO4)n2)cc1 [Example 159]
Response: 0.087

Prompt: Fill in Ki for record COCCOCCOCCOCCOCC1(F)CC=C(c2nccc(COc3ccc4cc3C[C@H](C(=O)O)Oc3ncnc5sc(-c6ccc(F)cc6)c(c35)-c3c(C)c(Cl)c(c(Cl)c3C)O[C@H](CN3CCN(C)CC3)CO4)n2)CC1 (single isomer, unassigned) [Example 114]
Response: 0.15

Prompt: Fill in Ki for record COCCOCCOCCOCC1(F)CC=C(c2nccc(COc3ccc4cc3C[C@H](C(=O)O)Oc3ncnc5sc(-c6ccc(F)cc6)c(c35)-c3c(C)c(Cl)c(c(Cl)c3C)O[C@H](CN3CCN(C)CC3)CO4)n2)CC1 (single isomer, unassigned) [Example 111]
Response: 0.101

Prompt: Fill in Ki for record COCCOCCOCCOCCOC[C@H]1CCCC[C@@H]1c1nccc(COc2ccc3cc2C[C@H](C(=O)O)Oc2ncnc4sc(-c5ccc(F)cc5)c(c24)-c2c(C)c(Cl)c(c(Cl)c2C)O[C@H](CN2CCN(C)CC2)CO3)n1 (relative stereo) [Example 124]
Response: 0.145

====

Below, each entry is listed alongside its reported log10 Ki.
Biological target: GST-MCL-1 (Homo sapiens, UniProt Q07820)
Sequence (Q07820 whole entry): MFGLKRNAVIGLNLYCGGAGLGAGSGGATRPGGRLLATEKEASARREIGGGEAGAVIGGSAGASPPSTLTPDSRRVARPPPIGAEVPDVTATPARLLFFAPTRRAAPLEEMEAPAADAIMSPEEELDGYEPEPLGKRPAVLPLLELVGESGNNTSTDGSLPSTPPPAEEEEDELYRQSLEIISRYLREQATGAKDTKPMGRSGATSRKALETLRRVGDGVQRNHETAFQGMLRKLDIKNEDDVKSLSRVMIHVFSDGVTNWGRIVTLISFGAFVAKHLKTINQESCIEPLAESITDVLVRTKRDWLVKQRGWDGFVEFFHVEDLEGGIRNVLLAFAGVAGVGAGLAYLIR
Assay: TR-FRET MCL-1 binding assay (competition with probe F-Bak)
Conditions: MCL-1 Binding Ki (nM, 10% HS), in the presence of 10% HS (human serum)
Reminder: these figures are log10 of reported Ki, in nM before transformation.

Example entries begin here.
[
  {
    "molecule": "Cc1c(Cl)c2c(Cl)c(C)c1-c1c(-c3ccc(F)cc3)sc3ncnc(c13)O[C@@H](C(=O)O)Cc1cc(ccc1OCc1ccnc(C3(COCCOCCOC[C@H]4COCCO4)CCC3)n1)OC[C@@H](CN1CCN(C)CC1)O2 [Example 72]",
    "log10 Ki": -0.74
  },
  {
    "molecule": "Cc1c(Cl)c2c(Cl)c(C)c1-c1c(-c3ccc(F)cc3)sc3ncnc(c13)O[C@@H](C(=O)O)Cc1cc(ccc1OCc1ccnc(-c3ccc(OCCN4C[C@H]5COC[C@H]5C4)cc3)n1)OC[C@@H](CN1CCN(C)CC1)O2 [Example 164]",
    "log10 Ki": -0.34
  },
  {
    "molecule": "COCCOCCOCCOc1ccc(-c2nccc(COc3ccc4cc3C[C@H](C(=O)O)Oc3ncnc5sc(-c6ccc(F)cc6)c(c35)-c3ccc(c(Cl)c3C)O[C@H](CN3CCN(C)CC3)CO4)n2)cc1 (atropisomer, axis not shown) [Example 13]",
    "log10 Ki": -0.60
  },
  {
    "molecule": "Cc1c(Cl)c2c(Cl)c(C)c1-c1c(-c3ccc(F)cc3)sc3ncnc(c13)O[C@@H](C(=O)O)Cc1cc(ccc1OCc1ccnc(N3C[C@H]4C[C@@H](C3)C4(F)F)n1)OC[C@@H](CN1CCN(C)CC1)O2 [Example 172]",
    "log10 Ki": 0.44
  },
  {
    "molecule": "CO[C@H]1O[C@H](COc2ccc(-c3nccc(COc4ccc5cc4C[C@H](C(=O)O)Oc4ncnc6sc(-c7ccc(F)cc7)c(c46)-c4ccc(c(Cl)c4C)CN(CCN4CCN(C)CC4)C5)n3)cc2)[C@@H](O)[C@H](O)[C@@H]1O [Example 10]",
    "log10 Ki": -0.31
  }
]

Prompt: Consider the molecule Cc1c(Cl)c2c(Cl)c(C)c1-c1c(-c3ccc(F)cc3)sc3ncnc(c13)O[C@@H](C(=O)O)Cc1cc(ccc1OCc1ccnc(-c3cccc(CP(C)(C)=O)c3)n1)OC[C@@H](CN1CCN(C)CC1)O2 [Example 51] tested on GST-MCL-1 (Homo sapiens, UniProt Q07820); state its log10 Ki.
Response: -1.12

Prompt: Consider the molecule CO[C@H]1O[C@H](COc2ccc(-c3nccc(COc4ccc5cc4C[C@H](C(=O)O)Oc4ncnc6sc(-c7ccc(F)cc7)c(c46)-c4ccc(c(Cl)c4C)CN(CCN4CCN(C)CC4)C5)n3)cc2)[C@@H](OC)[C@H](OC)[C@@H]1OC [Example 11] tested on GST-MCL-1 (Homo sapiens, UniProt Q07820); state its log10 Ki.
Response: 0.37

Prompt: Consider the molecule COCCOCCOCCOc1cccc(-c2nccc(COc3ccc4cc3C[C@H](C(=O)O)Oc3ncnc5sc(-c6ccc(F)cc6)c(c35)-c3c(C)c(Cl)c(c(Cl)c3C)O[C@H](CN3CCN(C)CC3)CO4)n2)c1 [Example 104] tested on GST-MCL-1 (Homo sapiens, UniProt Q07820); state its log10 Ki.
Response: -1.05

Prompt: Consider the molecule Cc1c(Cl)c2c(Cl)c(C)c1-c1c(-c3ccc(F)cc3)sc3ncnc(c13)O[C@@H](C(=O)O)Cc1cc(ccc1OCc1ccnc(C3=CCC(CC(=O)O)CC3)n1)OC[C@@H](CN1CCN(C)CC1)O2 (single isomer, unassigned) [Example 37] tested on GST-MCL-1 (Homo sapiens, UniProt Q07820); state its log10 Ki.
Response: -0.91
